- measurement_notes: Acute toxicity, intraperitoneal administration
- condition_summary: mouse, in vivo, ip, female Swiss mice, within 24 hours, read-out: Acute toxicity LD 50

# smiles_repr, LD50 at 24 h [mg/kg]
rows = [
    ("CCNCCCCOc1c(C)nc(Cc2ccccc2)c2c1COC2", 114),
    ("Cc1nc(Cc2ccccc2)c2c(c1OCCCCN(C(C)C)C(C)C)COC2", 156),
]

###

- Test system: Aconitineinduced arrhythmia, rats
- measurement_notes: animal or person
- Type: in vivo, rats (Sprague Dawley)
- condition_summary: relative activity; quinidine = 1.00

# molecule, R.A. (relative activity)
data = [
    ("Cc1nc(Cc2ccccc2)c2c(c1OCCCNC(C)C)COC2 [Example 34]", 1.46),
    ("Cc1nc(Cc2ccccc2)c2c(c1OCCCCNC(C)C)COC2 [Example 47]", 7.47),
    ("CCC(C)NCCCCOc1c(C)nc(Cc2ccccc2)c2c1COC2 (centres unmarked) [Example 60]", 2.00),
    ("CN(C)CCCOc1c(Cc2ccccc2)nc(Cc2ccccc2)c2c1COC2 [Example 32]", 2.84),
    ("CCNCCCCOc1c(C)nc(Cc2ccccc2)c2c1COC2 [Example 58]", 2.27),
]

Origin of values: patent US4206117A
